system: 496974-208-R-J2-PDC complex spheroids, growth % test/control; assay: Anticancer human tumor 496974-208-R-J2-PDC patient-derived pancreatic carcinoma cell line growth inhibition [CLK]; details: second compound 0.316 µM; first compound 0.316 µM; active means viability on the fitted dose curve at most 10% of control; inactive means the rest;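 further: spheroids exposed to the drugs for 7 days before readout; 100% = DMSO vehicle control wells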
Possible outcomes: label 1 (active), label 0 (inactive)

{"columns": ["molecule", "assigned-category"],
 "data": [
  ["CC1(C)CCC(CN2CCN(c3ccc(C(=O)NS(=O)(=O)c4ccc(NCC5CCOCC5)c([N+](=O)[O-])c4)c(Oc4cnc5[nH]ccc5c4)c3)CC2)=C(c2ccc(Cl)cc2)C1 + CN1CCN(c2cc(C(=O)Nc3cc4cc(-c5cnn(C)c5)ccc4cn3)ccn2)CC1", "label 1"],
  ["CC(CO)NC(=O)c1cc(-c2ccc(Cl)cc2)nn(-c2cnn(C)c2)c1=O (stereo not given) + CN1CCN(c2cc(C(=O)Nc3cc4cc(-c5cnn(C)c5)ccc4cn3)ccn2)CC1", "label 1"],
  ["CCc1c2c(nc3ccc(O)cc13)-c1cc3c(c(=O)n1C2)COC(=O)[C@]3(O)CC + CNC(=O)c1ccc(Nc2nc(OC3CCCC3)c3c(-c4ccc5nc(C)oc5c4)c[nH]c3n2)c(OC)c1", "label 1"],
  ["O=c1[nH]cc(F)c(=O)[nH]1 + CN1CCN(c2cc(C(=O)Nc3cc4cc(-c5cnn(C)c5)ccc4cn3)ccn2)CC1", "label 1"],
  ["CC1COCCN1c1cc(C2(S(C)(=N)=O)CC2)nc(-c2ccnc3[nH]ccc23)n1 (stereo not given) + CNC(=O)c1ccc(Nc2nc(OC3CCCC3)c3c(-c4ccc5nc(C)oc5c4)c[nH]c3n2)c(OC)c1", "label 0"]
]}

Reference for the values: PubChem BioAssay AID2060615
